Target: T1, Cynomolgus TCR(AEA41865/AEA41866)-zipper protein (cynomolgus monkey)
T1 construct: also called cyTCR-zipper protein; cynoTCR zipper
T1 TCR alpha: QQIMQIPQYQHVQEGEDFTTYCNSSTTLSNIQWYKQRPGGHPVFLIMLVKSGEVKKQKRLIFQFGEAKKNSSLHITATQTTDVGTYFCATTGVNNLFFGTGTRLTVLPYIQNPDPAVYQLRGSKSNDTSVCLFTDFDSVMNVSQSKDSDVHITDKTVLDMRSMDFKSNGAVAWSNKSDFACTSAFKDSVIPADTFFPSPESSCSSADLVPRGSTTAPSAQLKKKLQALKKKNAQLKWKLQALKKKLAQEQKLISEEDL
T1 TCR beta: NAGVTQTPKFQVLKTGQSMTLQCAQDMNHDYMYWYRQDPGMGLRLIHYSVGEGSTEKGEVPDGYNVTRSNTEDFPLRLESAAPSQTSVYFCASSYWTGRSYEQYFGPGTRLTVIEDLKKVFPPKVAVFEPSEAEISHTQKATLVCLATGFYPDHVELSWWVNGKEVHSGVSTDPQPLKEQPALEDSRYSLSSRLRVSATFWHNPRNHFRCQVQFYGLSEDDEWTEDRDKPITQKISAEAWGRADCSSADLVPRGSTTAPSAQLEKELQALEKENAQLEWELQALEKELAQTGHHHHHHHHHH
Assay: higher koff divided by lower koff, humanTCR zipper vs cynoTCR zipper (SPR)
recorded_endpoint: Gap in off-rate human vs cyno (fold)

binder	Gap in off-rate human vs cyno, fold
T017000623 (VHH, not shown: small tags and cut ends) VHH: EVQLVESGGGVVQPGGSLRLSCVASWDVHKINFYGWYRQAPGKEREKVAHISIGDQTDYADSAKGRFTISRDESKNTVYLQMNSLRPEDTALYYCRALSKIWPYDYWGQGTLVTVSS	1

a = T017000641 (VHH, not shown: small tags and cut ends) VHH: EVQLVESGGGVVQPGGSLRLSCVASWDVHKINFYTWYRQAPGKEREKVAHISIGDQTDYADSAKGRFTISRDESKNTVYLQMNSLRPEDTALYYCRALSKIWPYDYWGQGTLVTVSS
b = T017000141 (VHH, not shown: small tags and cut ends) VHH: EVQLVESGGGVVQPGGSLRLSCVASGDVHKINFLGWYRQAPGKEREKVAHISIGDQTDYADSAKGRFTISRDESKNMVYLQMNSLRPEDTALYFCRAFSRIYPYDYWGQGTLVTVSS
Request: Hi there! Just curious which has the higher Gap in off-rate human vs cyno between a and b . The response must carry the label of the picked entry.
Result: b
(b: 12.4 fold, a: 1.1 fold)
